# Tested on: MCF7
# assay_remarks: HRG-induced Akt activation (dPAkt = log2 pAkt/Akt HRG-stimulated minus log2 pAkt/Akt basal) (log2 ratio difference); higher = stronger HRG-induced Akt(T308) phosphorylation
# condition_description: miRNA mimic concentration 10 nM; time after transfection 72 h; heregulin 10 ng/ml; stimulation time 1 h
Assignment: determine reported HRG-induced Akt activation (log2) for the given sequences.
Give bare numbers.

The examples below pair each entry with its known result.
- UAGCAAAAACUGCAGUUACUUU: 1.86
- UCCGGUUCUCAGGGCUCCACC: 1.83
- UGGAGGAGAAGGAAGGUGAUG: 1.81

Moving on to another sequence below.
Form entry - test system: MCF7; read-out: HRG-induced Akt activation (log2); sequence: "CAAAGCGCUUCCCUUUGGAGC"
1.26
